# Tgt: T1, purified interference factor(s) from Donor A (human)
# T1 construct: also called interference in serum from Donor A
# Assay details: SPR, interference factor immobilized; % of Fig. 9 reference
Answer each item with its documented interference binding, % of Reference Sequence.
# value in %; strip the unit string

Data point: SEQ ID NO: 66 (VHH) VHH: EVQLVESGGGSVQPGGSLRLSCAASRSIGRLDRMGWYRHRPGEPRELVATITGGSSINYGDSVKGRFTISIDNSKNTVYLQMNSLRPEDTAVYYCNFNKYVTSRDTWGQGTLVTVSS ; interference binding, % of Reference Sequence = 81

Data point: SEQ ID NO: 79 (VHH) VHH: EVQLVESGGGLVQPGGSLRLSCAASRSIGRLDRMGWYRHRPGEPRELVATITGGSSINYGDSVKGRFTISIDNSKNTVYLQMNSLRPEDTAVYYCNFNKYVTSRDTWGQGTLVTVSS ; interference binding, % of Reference Sequence = 1

Data point: SEQ ID NO: 78 (VHH) VHH: EVQLVESGGGLVRPGGSLRLSCAASRSIGRLDRMGWYRHRPGEPRELVATITGGSSINYGDSVKGRFTISIDNSKNTVYLQMNSLRPEDTAVYYCNFNKYVTSRDTWGQGTLVTVSS ; interference binding, % of Reference Sequence = 96

Data point: SEQ ID NO: 72 (VHH) VHH: EVQLVESGGGLVQPGGSLRLSCAASRSIGRLDRMGWYRHRPGEPRELVATITGGSSINYGDSVKGRFTISIDNSKNTVYLQMNSLRPEDTAVYYCNFNKYVTSRDTWGQGTLVTVGG ; interference binding, % of Reference Sequence = 70
